- System: DLD-1 colon
- method-notes: NCI tumour cell line growth inhibition, 48 h

{"compound": "CCSc1nc(=[N+]2CCCC2)ss1", "tgt": "DLD-1 colon", "TGI": "> 100 µM"}
{"compound": "CN(C)c1ccc(C(=C2C=CC(=[N+](C)C)C=C2)c2ccc(N(C)C)cc2)cc1", "tgt": "DLD-1 colon", "TGI": "1.74 µM"}
{"compound": "c1ccc(C2OCCO2)c(OCCOc2cc(OCCOc3ccccc3C3OCCO3)c(OCCOc3ccccc3C3OCCO3)cc2OCCOc2ccccc2C2OCCO2)c1", "tgt": "DLD-1 colon", "TGI": "> 100 µM"}
{"compound": "CCOC(=O)c1nc(-c2ccccc2)oc1OCC", "tgt": "DLD-1 colon", "TGI": "> 100 µM"}
{"compound": "CC#CC1C(OC(=O)c2ccccc2)CCCC1(CI)N=[N+]=[N-] (configuration not stated)", "tgt": "DLD-1 colon", "TGI": "> 100 µM"}
{"compound": "COc1ccc(/C=C2\\CCC(CN(C)C)C2=O)cc1OC (configuration not stated)", "tgt": "DLD-1 colon", "TGI": "8.83 µM"}
{"compound": "COc1cccc2nc3cc(C)c(C)cc3nc12", "tgt": "DLD-1 colon", "TGI": "> 100 µM"}

###

- System: UO-31 renal
- method-notes: NCI tumour cell line growth inhibition, 48 h
*1 amine or outer side, *2 acyl side, *3 side chain or, on linkers, in order; H or OH if unused. Where a SMILES comes first, the peptide text is derived from it. [ ]: non-standard residue; d: D form. The star is where a group is joined. X33 = C=CCC(O[*:1])C(=O)[*:2]; NMeV = CN[CH](C(=O)O)C(C)C; NMeA = CN[CH](C)C(=O)O; Boc = CC(C)(C)OC(=O)*; OBn = c1ccc(CO*)cc1; βAla = NCCC(=O)O

{"molecule": "Cn1ccnc1C(=O)/C=C/c1ccc(CC(=O)Nc2ccc(C(F)(F)F)cc2)cc1", "TGI": "4.76 µM"}
{"molecule": "Cn1cc(-c2ccc(-c3cn(C)c4ccc(Cl)cc34)s2)c2cc(Cl)ccc21", "TGI": "> 100 µM"}
{"molecule": "CC(=O)N(CN1C(=O)CCC1C(=O)O)c1cccc(O)c1 (stereo not given)", "TGI": "> 100 µM"}
{"molecule": "CCOc1ncn(-c2ccc(NC(=S)NC34CC5CC(CC(C5)C3)C4)cc2)n1", "TGI": "> 100 µM"}
{"molecule": "CCc1nnc(-c2nsc3ccccc23)s1", "TGI": "> 100 µM"}
{"molecule": "CCOC(=O)Nc1nn(C)c(=NCc2ccccc2)s1", "TGI": "> 100 µM"}
{"molecule": "CC(C)C/C=C/C1=NN(c2cccc(S(=O)(=O)O)c2)C2(C1)SCC(=O)N2c1nc2ccccc2s1 (stereo not given)", "TGI": "> 100 µM"}
{"molecule": "O=C(COc1cccc(/C=C2\\COc3ccc(Cl)cc3C2=O)c1)c1ccc(Cl)cc1", "TGI": "19.4 µM"}
{"molecule": "COC(=O)C1=C(OC(=O)c2ccc(Cl)cc2)C(C(=O)OC)[C@@]2(O)[C@@H](C(=O)OC)C(c3ccccc3Cl)C[C@@H]1[C@@H]2C(=O)OC (stereo not given in full)", "TGI": "24 µM"}
{"molecule": "CC(C)N1C(NNC(=O)c2cnccn2)=NS(=O)(=O)c2ccccc21", "TGI": "> 100 µM"}
{"molecule": "CCCCCC[C@H]1C(=O)O[C@H](C)[C@H](NC(=O)c2cccc(NC=O)c2OC)C(=O)O[C@@H](C)[C@@H]1OC(=O)CC(C)C (tested in a mixture with another compound)", "TGI": "> 100 µM"}
{"molecule": "Oc1ccc(/C=C/c2ccc3cccc(O)c3n2)cc1O", "TGI": "7.71 µM"}
{"molecule": "CCN(CC)CC(C(=O)Nc1c(C)cccc1C)/C(C)=N\\NC(=O)c1ccncc1 (stereo not given)", "TGI": "> 100 µM"}
{"molecule": "CN1CCN(c2cc(-c3cc4ccccc4o3)oc(=O)c2C#N)CC1", "TGI": "> 100 µM"}
{"molecule": "NC(CCCCNC(=O)CNC(=O)OCc1ccccc1)C(=O)NC(CCCCNC(=O)CNC(=O)OCc1ccccc1)C(=O)NC(CCCCNC(=O)CNC(=O)OCc1ccccc1)C(=O)NC(CCCCNC(=O)CNC(=O)OCc1ccccc1)C(=O)NC(CCCCNC(=O)CNC(=O)OCc1ccccc1)C(=O)NC(CCCCNC(=O)CNC(=O)OCc1ccccc1)C(=O)O (stereo not given)", "TGI": "> 75 µM"}
{"molecule": "COC(=O)C1=C(C(=O)OC)SC(=C(N=Nc2ccccc2)c2ccccc2)S1", "TGI": "> 100 µM"}
{"molecule": "O=c1oc2c(ccc3ccccc32)cc1C1=CSC2=NCCN12", "TGI": "> 100 µM"}
{"molecule": "COc1cc(C2CC(c3ccc(N(C)C)cc3)=NN2C(C)=O)cc(OC)c1OC (stereo not given)", "TGI": "> 100 µM"}
{"molecule": "CSc1ccccc1C#Cc1ccccc1C#CCCCCO", "TGI": "25.4 µM"}
{"molecule": "C=CCC1OC(=O)CCNC(=O)C(C)N(C)C(=O)C(C(C)C)N(C)C(=O)C(C(C)CC)NC(=O)C2CCCN2C1=O (stereo not given) (cyclo([X33]PI[NMeV][NMeA][βAla]); configuration not given here)", "TGI": "47.5 µM"}
{"molecule": "Cc1n[nH]c(=O)n1/N=C\\CC/C=N\\n1c(C)n[nH]c1=O", "TGI": "> 100 µM"}
{"molecule": "O=C1C(=Nc2ccccc2)Oc2cc(O)ccc21", "TGI": "> 100 µM"}
{"molecule": "CC(C)(C)[Si](C)(C)OCCOCn1cc(F)c(=O)[nH]c1=O", "TGI": "> 100 µM"}
{"molecule": "C=C1CCC2C3(C)COC(c4ccccc4Br)OC3CCC2(C)C1C/C=C1/C(=O)OCC1OC(C)=O (stereo not given)", "TGI": "2.72 µM"}
{"molecule": "CCCCOCCOC1=CC(=O)c2c(O)ccc(O)c2C1=O", "TGI": "3.01 µM"}
{"molecule": "C/C(=N\\NC(=S)Nc1ccc(C)cc1)c1nc2ncccc2[nH]1", "TGI": "4.05 µM"}
{"molecule": "CC(=O)Nc1ccc(/C=C/C(=O)c2sc(-c3nc(C)c(C(=O)/C=C/c4ccc(NC(C)=O)cc4)s3)nc2C)cc1", "TGI": "> 100 µM"}
{"molecule": "CC(C)(CO)NC(=O)Nc1c(C(F)(F)F)cc(-c2ccccc2)[nH]c1=O", "TGI": "> 100 µM"}
{"molecule": "O=c1[nH]c(-c2ccc(-c3nc4cc([N+](=O)[O-])ccc4c(=O)[nH]3)cc2)nc2cc([N+](=O)[O-])ccc12", "TGI": "> 100 µM"}
{"molecule": "O=C1Nc2ccccc2/C1=C/c1c(Cl)[nH]c2ccc(O)cc12", "TGI": "28.2 µM"}
{"molecule": "COc1cc([C@@H]2c3cc4c(cc3[C@@H](OC(=O)c3ccccc3)C3COC(=O)[C@@H]32)OCO4)cc(OC)c1O (stereo not given in full)", "TGI": "33.5 µM"}
{"molecule": "Cn1c(=O)c2c(ncn2CCCCOc2ccc3c(c2)[n+]([O-])nc(N)[n+]3[O-])n(C)c1=O", "TGI": "> 100 µM"}
{"molecule": "O=C(Cc1ccccc1)NCCCN(CCCCN(CCCNC(=O)Cc1ccccc1)C(=O)OCc1ccccc1)C(=O)OCc1ccccc1", "TGI": "6.42 µM"}
{"molecule": "C/C=C/C=C/CCCCCCCCCCCCCC1(OC)C=CC(CC(=O)OC)OO1 (stereo not given)", "TGI": "7.94 µM"}
{"molecule": "CC(NC(=O)C(Cc1ccccc1)NC(=O)C(Cc1ccccc1)NC(=O)OC(C)(C)C)C(=O)OCc1ccccc1 (stereo not drawn) (Boc-Phe-Phe-Ala-OBn; configuration not given here)", "TGI": "> 100 µM"}
